These entries and their values trace back to paper PMC12102759.

target.under.test: T1, talin-1 phosphotyrosine binding (TLN1 PTB) domain (human, UniProt Q9Y490 309-401)
T1 construct: source: E. coli BL21 (DE3), purified (Ni Sepharose, tag cleaved with HRV 3C protease)
experiment.notes: fluorescence polarisation; displacement: unlabelled peptide in serial dilution added to FITC-labelled probe peptide with the protein at 4x the KD value; 50 mM KPO4 pH 7.5; triplicates; sigmoidal dose-response fit
condition.set: both partners purified
Listing of recorded pIC50 by entry.
Notebook: values listed as pIC50 are -log10 of the concentration (mol/L).

{"binder": "Ac-LADLIFTDSKLYIPLE-NH2 [TPTE2 wt peptide 92-107]", "quantity.kind": "pIC50", "value.reported": 4.82}
{"binder": "Ac-LADLIYTDSKLYIPLE-NH2 [TPTE2_F97Y peptide 92-107]", "quantity.kind": "pIC50", "value.reported": 3.36}
{"binder": "Ac-LADLIFTDSALYIPLE-NH2 [TPTE2_K101A peptide 92-107]", "quantity.kind": "pIC50", "value.reported": 4.35}

Need pIC50 of Ac-LADLIFTDNKLYIPLE-NH2 [TPTE2_S100N peptide 92-107] , thanks.
5.28
